Just for reference, the supplement of paper PMC12494721 is where these values come from.

system: Ruminococcus gnavus DSM 108212; assay: fold change of Tryptamine concentration vs plate DMSO controls (fold change (ratio)); higher = more amine produced, active = hit call of the paper (significant change in both replicates, either direction); settings: incubation time: 27 h, anaerobic, 37 °C
Counter-ions that a name gives are not always drawn.

MOLECULE	TESTED SYSTEM	fold change of Tryptamine concentration
CCOC1O[C@H]([C@@H](COCc2ccccc2)OCc2ccccc2)[C@H](OCc2ccccc2)[C@H]1O (stereo partly drawn) [Tribenoside] (20 µM)	Ruminococcus gnavus DSM 108212	0.966
Cc1cc(N)c2ccccc2[n+]1CCCCCCCCCC[n+]1c(C)cc(N)c2ccccc21 [Dequalinium dichloride] (20 µM)	Ruminococcus gnavus DSM 108212	0.896
N#CC(c1ccc(Cl)cc1)c1c(Cl)cc(-n2ncc(=O)[nH]c2=O)cc1Cl (stereo not drawn) [Diclazuril] (20 µM)	Ruminococcus gnavus DSM 108212	0.778
CCCCCNC(=N)N/N=C/c1c[nH]c2ccc(OC)cc12 [Tegaserod maleate] (20 µM)	Ruminococcus gnavus DSM 108212	0.791
O=C1C(=O)c2ccccc2C(O)=C1C1CCC(c2ccc(Cl)cc2)CC1 (stereo not drawn) [Atovaquone] (20 µM)	Ruminococcus gnavus DSM 108212	0.753
O=C(O)Cc1sc(-c2ccccc2)nc1-c1ccc(Cl)cc1 [Fentiazac] (20 µM)	Ruminococcus gnavus DSM 108212	0.966
CC(C)NNC(=O)c1ccncc1 [Iproniazide phosphate] (20 µM)	Ruminococcus gnavus DSM 108212	1
O=C(Cn1c(=O)sc2ccc(Cl)cc21)N1CCN(CCO)CC1 [Tiaramide Hydrochloride] (20 µM)	Ruminococcus gnavus DSM 108212	1.07
